Experiment: Selectivity index, ratio of EC50 for human HEK cells to EC50 for wild type Trypanosoma brucei brucei Lister 427
Format: toxicity, cell-based, HEK293
Conditions: HEK cells, read-out: Ratio EC50
Assay endpoint: selectivity ratio
One number for each entry.

Give the reported selectivity ratio for this compound. Cc1cccc([P+](Cc2ccc(Oc3ccccc3)cc2)(c2cccc(C)c2)c2cccc(C)c2)c1.[Br-]
876

// for each compound in input: emit selectivity ratio
1. Cc1cccc([P+](Cc2ccc(Cc3ccc(C[P+](c4cccc(C)c4)(c4cccc(C)c4)c4cccc(C)c4)cc3)cc2)(c2cccc(C)c2)c2cccc(C)c2)c1.[Br-].[Br-]
2. CCCCCC[P+](CCCCCC)(CCCCCC)Cc1ccc(C(=O)c2ccccc2)cc1.[Br-]

[524, 1200]

* * *

Answer each item with its documented selectivity ratio.
Assay: Selectivity index, ratio of EC50 for rat L6 cells to EC50 for Trypanosoma brucei rhodesiense STIB900
Assay type: toxicity, cell-based
Conditions: L6 cells, read-out: Ratio EC50
Give bare numbers.

The cases that follow already have their selectivity ratio on record.
For the molecule CCC[P+](Cc1ccc(Cc2ccc(C[P+](CCC)(c3ccccc3)c3ccccc3)cc2)cc1)(c1ccccc1)c1ccccc1.[Br-].[Br-] , give its measured selectivity ratio value.
4.1

Return selectivity ratio (reported value) for this molecule: Cc1ccc([P+](Cc2ccc(C(=O)c3ccccc3)cc2)(c2ccccc2)c2ccccc2)cc1.[Br-]
29

Please give measured selectivity ratio of the following entry: O=C(c1ccc(C[P+](c2ccccc2)(c2ccccc2)c2ccccn2)cc1)c1ccc(C[P+](c2ccccc2)(c2ccccc2)c2ccccn2)cc1.[Br-].[Br-]
24

Specify selectivity ratio for O=C(c1ccc(C[P+](c2ccc(F)cc2)(c2ccc(F)cc2)c2ccc(F)cc2)cc1)c1ccc(C[P+](c2ccc(F)cc2)(c2ccc(F)cc2)c2ccc(F)cc2)cc1.[Br-].[Br-] and stop.
172

Identify measured selectivity ratio associated with Cc1ccc([P+](CCc2ccc(CCc3ccc(CC[P+](c4ccc(C)cc4)(c4ccc(C)cc4)c4ccc(C)cc4)cc3)cc2)(c2ccc(C)cc2)c2ccc(C)cc2)cc1.[Cl-].[Cl-]
40.3

Fill in reported selectivity ratio for this entry: O=C(c1ccc(C[P+](c2cccc3ccccc23)(c2cccc3ccccc23)c2cccc3ccccc23)cc1)c1ccc(C[P+](c2cccc3ccccc23)(c2cccc3ccccc23)c2cccc3ccccc23)cc1.[Br-].[Br-]
12

Answer with the recorded selectivity ratio for the molecule listed here: O=C(c1ccc(C[P+](c2ccc(Cl)cc2)(c2ccc(Cl)cc2)c2ccc(Cl)cc2)cc1)c1ccc(C[P+](c2ccc(Cl)cc2)(c2ccc(Cl)cc2)c2ccc(Cl)cc2)cc1.[Br-].[Br-]
18

Give recorded selectivity ratio. COc1ccccc1[P+](Cc1ccc(C(=O)c2ccc(C[P+](c3ccccc3)(c3ccccc3OC)c3ccccc3OC)cc2)cc1)(c1ccccc1)c1ccccc1OC.[Br-].[Br-]
28

Annotate the molecule O=C(c1ccc(C[P+](c2ccccc2)(C2CCCCC2)C2CCCCC2)cc1)c1ccc(C[P+](c2ccccc2)(C2CCCCC2)C2CCCCC2)cc1.[Br-].[Br-] with its measured selectivity ratio.
72

Determine from records and report selectivity ratio for COc1ccccc1[P+](Cc1ccc(C(=O)c2ccccc2)cc1)(c1ccccc1OC)c1ccccc1OC.[Br-]
10

Continuing:
For the molecule O=C(c1ccc(C[P+](C2CCCCC2)(C2CCCCC2)C2CCCCC2)cc1)c1ccc(C[P+](C2CCCCC2)(C2CCCCC2)C2CCCCC2)cc1.[Br-].[Br-] , give its reported selectivity ratio.
166

* * *

Experiment: Selectivity index, ratio of EC50 for rat L6 cells to EC50 for Trypanosoma brucei rhodesiense STIB900
Type: toxicity, cell-based
Conditions: l6
Give measured Ratio EC50 for each item. Keep answers brief.

In the examples that follow, each entry is paired with its recorded Ratio EC50.
Fill in reported Ratio EC50 for this entry: Cc1ccc([P+](Cc2ccc(CCc3ccc(C[P+](c4ccc(C)cc4)(c4ccc(C)cc4)c4ccc(C)cc4)cc3)cc2)(c2ccc(C)cc2)c2ccc(C)cc2)cc1.[Br-].[Br-]
7.8

Consider the compound Cc1ccc(C[P+](c2ccccc2)(c2ccccc2)c2ccccc2)cc1.[Br-] and give its recorded Ratio EC50.
35.5

Dear colleague, please send me the reported Ratio EC50 for Cc1ccc([P+](Cc2ccc(C(=O)c3ccc(C[P+](c4ccc(C)cc4)(c4ccc(C)cc4)c4ccc(C)cc4)cc3)cc2)(c2ccc(C)cc2)c2ccc(C)cc2)cc1.[Cl-].[Cl-] when you can.
14.5

Please report Ratio EC50 for the following compound: Cc1ccc([P+](Cc2ccc(C(=O)c3ccc(C[P+](c4ccc(C)cc4)(c4ccc(C)cc4)c4ccc(C)cc4)cc3)cc2)(c2ccc(C)cc2)c2ccc(C)cc2)cc1.[Br-].[Br-]
49

Check the records and state Ratio EC50 for Cc1ccc([P+](Cc2ccc(CCc3ccc(C[P+](c4ccc(C)cc4)(c4ccc(C)cc4)c4ccc(C)cc4)cc3)cc2)(c2ccc(C)cc2)c2ccc(C)cc2)cc1.[Cl-].[Cl-]
33.8

Others:
Fill in reported Ratio EC50 for this entry: Cc1ccc([P+](Cc2ccc(CCCc3ccc(C[P+](c4ccc(C)cc4)(c4ccc(C)cc4)c4ccc(C)cc4)cc3)cc2)(c2ccc(C)cc2)c2ccc(C)cc2)cc1.[Cl-].[Cl-]
27.3

* * *

Assay: Inhibition of Trypanosoma brucei brucei LAPT1 assessed as [3H]-pentamidine uptake after 120 secs by scintillation counting
Could you please mark T for values of Ki below 20 µM and F for values at or above it?

Illustrative cases are given below, each with its answer.
Input CC(=O)N(c1ccc(C[P+](c2ccc(C)cc2)(c2ccc(C)cc2)c2ccc(C)cc2)cc1)c1ccc(C[P+](c2ccc(C)cc2)(c2ccc(C)cc2)c2ccc(C)cc2)cc1.[Br-].[Br-] ; condition: Ki strictly below 20 µM. Does it hold?
T

Quick check: does O=C(c1ccc(C[P+](c2ccccc2)(c2ccccc2)C2CCCCC2)cc1)c1ccc(C[P+](c2ccccc2)(c2ccccc2)C2CCCCC2)cc1.[Br-].[Br-] have Ki under 20 µM?
T

Please state whether Ki is below 20 µM for O=C(c1ccc(C[P+](c2ccccc2)(c2ccccc2)c2ccccc2)cc1)c1ccc(C[P+](c2ccccc2)(c2ccccc2)c2ccccc2)cc1.[Br-].[Br-]
F

***
Is Ki strictly under 20 µM for the entry O=C(c1ccc(C[P+](C2CCCCC2)(C2CCCCC2)C2CCCCC2)cc1)c1ccc(C[P+](C2CCCCC2)(C2CCCCC2)C2CCCCC2)cc1.[Br-].[Br-] ?
F

Quick check: Ki of C[P+](C)(C)Cc1ccc(C(=O)c2ccc(C[P+](C)(C)C)cc2)cc1 under 20 µM?
F

* * *

Test: Selectivity index, ratio of EC50 for rat L6 cells to EC50 for Trypanosoma brucei rhodesiense STIB900
Format: toxicity, cell-based
Settings: L6 cells, read-out: Ratio EC50
Assay endpoint: selectivity ratio

Past entries and their recorded results:
Please report selectivity ratio for the following compound: Cc1cccc([P+](Cc2ccc(Oc3ccccc3)cc2)(c2cccc(C)c2)c2cccc(C)c2)c1.[Br-]
62

For the compound Cc1ccc([P+](Cc2ccc(Oc3ccc(C[P+](c4ccccc4)(c4ccccc4)c4ccc(C)cc4)cc3)cc2)(c2ccccc2)c2ccccc2)cc1.[Br-].[Br-] , give its reported selectivity ratio.
23

Could you report selectivity ratio for every entry in the following list?
1. CC(=O)N(c1ccc(C[P+](c2ccc(C)cc2)(c2ccc(C)cc2)c2ccc(C)cc2)cc1)c1ccc(C[P+](c2ccc(C)cc2)(c2ccc(C)cc2)c2ccc(C)cc2)cc1.[Br-].[Br-]
2. COc1ccccc1[P+](Cc1ccc(Oc2ccc(C[P+](c3ccccc3OC)(c3ccccc3OC)c3ccccc3OC)cc2)cc1)(c1ccccc1OC)c1ccccc1OC.[Br-].[Br-]
3. Cc1ccc([P+](Cc2ccc(Cc3ccc(C[P+](c4ccc(C)cc4)(c4ccc(C)cc4)c4ccc(C)cc4)cc3)cc2)(c2ccc(C)cc2)c2ccc(C)cc2)cc1.[Br-].[Br-]
4. O=C(c1ccc(C[P+](c2ccccc2)(c2ccccc2)c2ccccc2)cc1)c1ccc(C[P+](c2ccccc2)(c2ccccc2)c2ccccc2)cc1.[Br-].[Br-]

1: 137; 2: 8; 3: 24; 4: 282

* * *

System: Trypanosoma brucei brucei
Assay: Antitrypanosomal activity against diminazene aceturate-resistant TbAT1 gene-deficient Trypanosoma brucei brucei AT1-KO after 3 days by alamar blue assay
Format: functional, organism-based
Please provide measured EC50 for the entries that follow.
One number for each entry, in nM.

Some molecules with recorded EC50:
Indicate the recorded EC50 value for this molecule: Cc1ccc([P+](Cc2ccc(CCc3ccc(C[P+](c4ccc(C)cc4)(c4ccc(C)cc4)c4ccc(C)cc4)cc3)cc2)(c2ccc(C)cc2)c2ccc(C)cc2)cc1.[Cl-].[Cl-]
30

Tell me measured EC50 for Cc1ccc([P+](Cc2ccc(C(=O)c3ccc(C[P+](c4ccc(C)cc4)(c4ccc(C)cc4)c4ccc(C)cc4)cc3)cc2)(c2ccc(C)cc2)c2ccc(C)cc2)cc1.[Cl-].[Cl-] please.
65

Return the recorded EC50 value; entry: Cc1ccc(C[P+](c2ccccc2)(c2ccccc2)c2ccccc2)cc1.[Br-]
33

Give the reported EC50 for this molecule. Cc1ccc([P+](Cc2ccc(C(=O)c3ccc(C[P+](c4ccc(C)cc4)(c4ccc(C)cc4)c4ccc(C)cc4)cc3)cc2)(c2ccc(C)cc2)c2ccc(C)cc2)cc1.[Br-].[Br-]
18

Indicate the recorded EC50 value for this molecule: Cc1ccc([P+](Cc2ccc(CCc3ccc(C[P+](c4ccc(C)cc4)(c4ccc(C)cc4)c4ccc(C)cc4)cc3)cc2)(c2ccc(C)cc2)c2ccc(C)cc2)cc1.[Br-].[Br-]
150

Now turn to the next molecule.
Look up EC50 of Cc1ccc([P+](Cc2ccc(CCCc3ccc(C[P+](c4ccc(C)cc4)(c4ccc(C)cc4)c4ccc(C)cc4)cc3)cc2)(c2ccc(C)cc2)c2ccc(C)cc2)cc1.[Cl-].[Cl-] and report it.
66
